Notes on pIC50 obtained with UniProt P10632.
Sequence (P10632 whole entry): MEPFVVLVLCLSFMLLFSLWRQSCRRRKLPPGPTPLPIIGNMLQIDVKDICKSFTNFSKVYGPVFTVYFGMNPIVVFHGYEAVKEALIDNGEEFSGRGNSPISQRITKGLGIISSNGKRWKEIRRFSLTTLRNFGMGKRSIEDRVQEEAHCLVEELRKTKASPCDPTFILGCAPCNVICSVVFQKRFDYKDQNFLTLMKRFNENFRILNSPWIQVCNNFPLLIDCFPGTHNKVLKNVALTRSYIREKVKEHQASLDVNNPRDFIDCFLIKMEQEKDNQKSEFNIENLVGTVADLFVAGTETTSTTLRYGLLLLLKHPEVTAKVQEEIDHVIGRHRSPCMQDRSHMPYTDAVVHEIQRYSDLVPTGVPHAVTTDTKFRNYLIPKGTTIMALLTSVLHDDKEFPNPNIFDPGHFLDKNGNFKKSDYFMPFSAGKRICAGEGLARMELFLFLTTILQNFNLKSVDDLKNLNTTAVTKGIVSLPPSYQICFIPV
Remember, pIC50 is on a log scale: it is -log10 of the molar concentration.

COMPOUND	STUDY SYSTEM	REPORTED RESULT
O=C(Nc1ccc(Cl)cc1)C(=O)N1CC[C@H](c2ccnc3ccc(F)cc23)[C@@H](O)C1 (stereo in doubt)	UniProt P10632	5.02

Next, consider the following compound.
In: If you can, please state the reported pIC50 value of O=C(Nc1ccc(Cl)cc1)C(=O)N1CCC(c2ccnc3ccc(F)cc23)CC1 .
Out: 5.33

====

Quick reference: fraction unbound of the listed items.
Assay: Plasma protein binding in mouse
Type: ADME, cell-free
Settings: read-out: PPB (converted)
I'd appreciate a reply containing only the number, no unit.

COMPOUND	fraction unbound
O=C(Nc1ccc(Cl)cc1)C(=O)N1CCC(c2ccnc3ccc(F)cc23)CC1	0.011

In: For the compound shown here, O=C(Nc1ccc(Cl)cc1)C(=O)N1CC[C@H](c2ccnc3ccc(F)cc23)[C@@H](O)C1 (stereo in doubt) , give the reported fraction unbound.
Out: 0.02
